The reported numbers originate from patent US20180185504A1.

Biological target: T1, human PRLR on cells (endogenous on T47D, T47D#11, MCF7); introduced in HEK293/hPRLR/STAT5-Luc, 293/hPRLR, … (human, UniProt P16471 25-622)
T1 sequence: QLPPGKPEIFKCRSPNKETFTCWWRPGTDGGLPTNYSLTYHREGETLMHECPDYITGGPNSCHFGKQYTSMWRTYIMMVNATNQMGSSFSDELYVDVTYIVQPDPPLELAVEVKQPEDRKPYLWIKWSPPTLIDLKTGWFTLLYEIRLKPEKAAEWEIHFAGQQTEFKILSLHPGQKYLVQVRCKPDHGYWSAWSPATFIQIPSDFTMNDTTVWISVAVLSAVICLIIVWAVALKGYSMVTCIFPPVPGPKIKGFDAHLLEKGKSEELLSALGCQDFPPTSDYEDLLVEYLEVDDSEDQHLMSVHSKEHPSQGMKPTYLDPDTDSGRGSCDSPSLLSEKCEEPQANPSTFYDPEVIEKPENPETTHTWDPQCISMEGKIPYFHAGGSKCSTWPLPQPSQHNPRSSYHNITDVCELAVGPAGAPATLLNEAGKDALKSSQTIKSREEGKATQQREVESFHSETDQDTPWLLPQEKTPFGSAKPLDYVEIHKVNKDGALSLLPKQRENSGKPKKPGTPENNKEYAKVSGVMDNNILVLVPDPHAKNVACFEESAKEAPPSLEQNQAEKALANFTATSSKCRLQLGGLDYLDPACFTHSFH
Experiment: cell-based or functional assay
Entries and their Percent Blocking at 100 nM Antibody (STAT5-Luc reporter) values follow.
observable: Percent Blocking at 100 nM Antibody (STAT5-Luc reporter) (%)

{"binder": "H1H6804P (antibody, human IgG1, V domains shown, human IgG1 Fc (H1H)) VH: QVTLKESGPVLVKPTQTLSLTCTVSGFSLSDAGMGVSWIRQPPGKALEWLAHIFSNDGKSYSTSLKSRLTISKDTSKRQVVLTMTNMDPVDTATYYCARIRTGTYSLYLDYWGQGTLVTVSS VL: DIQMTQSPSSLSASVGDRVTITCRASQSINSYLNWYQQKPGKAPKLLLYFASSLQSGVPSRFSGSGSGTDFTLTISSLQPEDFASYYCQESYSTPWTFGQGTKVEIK", "recordedValue": 100}
{"binder": "H1H6803P (antibody, human IgG1, V domains shown, human IgG1 Fc (H1H)) VH: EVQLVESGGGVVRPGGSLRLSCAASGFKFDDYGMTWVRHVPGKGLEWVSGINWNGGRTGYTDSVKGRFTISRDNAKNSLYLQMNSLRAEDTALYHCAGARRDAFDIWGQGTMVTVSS VL: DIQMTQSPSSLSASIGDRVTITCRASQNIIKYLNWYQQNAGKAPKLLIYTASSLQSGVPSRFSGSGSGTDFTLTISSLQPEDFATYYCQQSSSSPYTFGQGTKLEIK", "recordedValue": 100}
